Quick reference for melting point among some molecules
Measured parameter: melting point

test_smiles=Nc1ccc(CCC2=NNC(=O)C2=Cc2c[nH]c3ccccc23)cc1 assay_result="244 to 246 °C"
test_smiles=CCOC1=NNC(=O)C1=Cc1[nH]cc(C)c1CCC(=O)O assay_result="255 to 257 °C"
test_smiles=O=C1NN=C(OC2CCCC2)C1=Cc1ccc[nH]1 assay_result="201 to 203 °C"
test_smiles=Cn1cc(C=C2C(=O)NN=C2NC2CC2)c2ccccc21 assay_result="160 to 164 °C (dec.)"
test_smiles=COc1ccc(NC(=O)CC2=NNC(=O)C2=Cc2ccc[nH]2)cc1 assay_result="240 to 242 °C"
test_smiles=Cn1cc(C=C2C(=O)NN=C2C(C)(C)C)c2ccccc21 assay_result="201 to 203 °C"
test_smiles=Cc1[nH]c(C=C2C(=O)NN=C2OC(C)C)c(C)c1C(=O)OCCN(C)C assay_result="165 to 167 °C"
test_smiles=O=C1NN=C(CCc2ccccc2)C1=Cc1ccc[nH]1 assay_result="145 to 147 °C"
test_smiles=CCN(CC)Cc1c(C)[nH]c(C=C2C(=O)NN=C2c2cnccn2)c1C assay_result="242 to 244 °C"
test_smiles=Cc1[nH]c(C=C2C(=O)NN=C2c2cnccn2)c(C)c1CNC(=O)C(F)(F)F assay_result="302 to 305 °C"

The origin of these recorded values is patent US7060822B1.
